This listing pairs compounds with measured IC50.
test system: RPMI. myeloma cell line bearing KRas^G12A oncogenic mutation; experiment: Antiproliferative MTS assay, RPMI cells; assay type: cell-based; conditions: 72 h, compounds 1-23 and 47-52 median of experiments, 24-46 estimations and/or preliminary results, read-out: IC50 values: cell proliferation inhibition, RPMI
measured_metric: IC50 (nM)

compound="COc1ccc(CCOc2cc3c(cc2OC)CCN(C(=O)N[C@@H](C)C(F)(F)F)C3c2ccc(C)cc2C)cc1N (stereo partly drawn)" measured_metric=IC50 reported_relation== numeric_result=40
compound="COc1cc(CCOc2cc3c(cc2OC)CCN(C(=O)NCc2cocn2)C3c2ccc(Cl)cc2C)ccc1N (stereo not drawn)" measured_metric=IC50 reported_relation== numeric_result=100
compound="CCNC(=O)N1CCc2cc(OC)c(OCCc3ccc(OC)c(N)c3)cc2C1c1ccc(N(C)C)cc1C (stereo not drawn)" measured_metric=IC50 reported_relation== numeric_result=200
compound="COc1ccc(CCOc2cc3c(cc2OC)CCN(C(=O)NCC(F)(F)F)C3c2ccc(Cl)cc2C)cc1N (stereo not drawn)" measured_metric=IC50 reported_relation== numeric_result=100
compound="COc1ccc(C2c3cc(OCCc4ccc(OC)c(N)c4)c(OC)cc3CCN2C(=O)N[C@@H](C)C(F)(F)F)c(C)c1 (stereo partly drawn)" measured_metric=IC50 reported_relation== numeric_result=150
compound="COc1cc2c(cc1OCCc1cc(O)cc(Cl)c1)C(c1ccc(C)cc1C)N(C(=O)NCc1cocn1)CC2 (stereo not drawn)" measured_metric=IC50 reported_relation=> numeric_result=2000
compound="COc1ccc(CCOc2cc3c(cc2OC)CCN(C(=O)NCc2cocn2)C3c2ccc(C)cc2C)cc1O (stereo not drawn)" measured_metric=IC50 reported_relation== numeric_result=200
compound="CCNC(=O)N1CCc2cc(OC)c(OCCc3ccc(N)c(OC)c3)cc2C1c1ccc(F)cc1C (stereo not drawn)" measured_metric=IC50 reported_relation== numeric_result=100
compound="COc1ccc(C2c3cc(OCCc4ccc(N)c(OC)c4)c(OC)cc3CCN2C(=O)NCc2ccon2)c(C)c1 (stereo not drawn)" measured_metric=IC50 reported_relation== numeric_result=100
compound="CCNC(=O)N1CCc2cc(OC)c(OCCc3ccc(OC)c(N)c3)cc2C1c1ccc(F)cc1C (stereo not drawn)" measured_metric=IC50 reported_relation== numeric_result=100
compound="COc1ccc(CCOc2cc3c(cc2OC)CCN(C(=O)NCc2cocn2)C3c2ccc(C(F)(F)F)cc2C)cc1N (stereo not drawn)" measured_metric=IC50 reported_relation== numeric_result=100
compound="CCNC(=O)N1CCc2cc(OC)c(OCCc3ccc(N)c(OC)c3)cc2C1c1ccc(C(F)(F)F)cc1C (stereo not drawn)" measured_metric=IC50 reported_relation== numeric_result=200
compound="COc1ccc(CCOc2cc3c(cc2OC)CCN(C(=O)NCc2cocn2)C3c2ccc(C)cc2C)cc1N (stereo not drawn)" measured_metric=IC50 reported_relation== numeric_result=300
compound="CCNC(=O)N1CCc2cc(OC)c(OCCc3ccc(OC)c(N)c3)cc2C1c1ccc(OC)cc1C (stereo not drawn)" measured_metric=IC50 reported_relation== numeric_result=100
compound="COc1ccc(CCOc2cc3c(cc2OC)CCN(C(=O)N[C@H](C)C(F)(F)F)C3c2ccc(C)cc2C)cc1N (stereo partly drawn)" measured_metric=IC50 reported_relation== numeric_result=400
